Please go through the items and note down their IC50.
procedure-text: Antiproliferative activity against mouse BA/F3 Bcr-abl negative cells expressing Tel-JAK1 kinase assessed as proliferation after 48 hrs by MTT assay
Type: functional, cell-based
reported-conditions: BaF3, 48 h

>>> print(df.to_string())
                                test_smiles  measured_value
0  Cc1ccc(NC(=O)c2ccc(CN3CCN(C)CC3)cc2)cc1Nc1nccc(-c2cccnc2)n1         > 10 µM

Find the recorded IC50 belonging to `NC(=O)c1cccc(-c2cc(Nc3ccc(OC(F)(F)F)cc3)ncn2)c1` and report it.
> 10 µM

---

Please go through the items and note down their IC50.
procedure-text: Antiproliferation activity against mouse BA/F3 cells expressing Bcr-abl assessed as cell viability after 48 hrs by MTT assay
Type: functional, cell-based
reported-conditions: BaF3, 48 h

>>> print(df.to_string())
                                test_smiles  measured_value
0  NC(=O)c1cccc(-c2cc(Nc3ccc(OC(F)(F)F)cc3)ncn2)c1          138 nM

Okay, now this molecule:
Find the recorded IC50 belonging to `Cc1ccc(NC(=O)c2ccc(CN3CCN(C)CC3)cc2)cc1Nc1nccc(-c2cccnc2)n1` and report it.
190 nM

---

procedure-text: Antiproliferative activity against mouse BA/F3 Bcr-abl negative cells expressing FIt3-ITD kinase assessed as proliferation after 48 hrs by MTT assay
Format: functional, cell-based
reported-conditions: BaF3, 48 h
Please go through the items and note down their IC50.

                                test_smiles  measured_value
0  Cc1ccc(NC(=O)c2ccc(CN3CCN(C)CC3)cc2)cc1Nc1nccc(-c2cccnc2)n1         > 10 µM

Okay, now this compound:
Find the recorded IC50 belonging to `NC(=O)c1cccc(-c2cc(Nc3ccc(OC(F)(F)F)cc3)ncn2)c1` and report it.
> 10 µM

---

procedure-text: Antiproliferative activity against mouse BA/F3 Bcr-abl negative cells expressing TPR-MET kinase assessed as proliferation after 48 hrs by MTT assay
Assay type: functional, cell-based
reported-conditions: BaF3, 48 h
pIC50: −log10 of the molar value.
measurement-label: pIC50

>>> df
                                test_smiles  measurement_label  measured_value
0  NC(=O)c1cccc(-c2cc(Nc3ccc(OC(F)(F)F)cc3)ncn2)c1              pIC50          < 5.00

Find the recorded pIC50 belonging to `Cc1ccc(NC(=O)c2ccc(CN3CCN(C)CC3)cc2)cc1Nc1nccc(-c2cccnc2)n1` and report it.
< 5.00

---

procedure-text: Antiproliferative activity against mouse BA/F3 cells expressing NPM-abl assessed as cell viability at 5 to 10 uM after 48 hrs by MTT assay
reported-conditions: BaF3, 48 h
measurement-label: IC50

Find the recorded IC50 belonging to `Cc1ccc(NC(=O)c2ccc(CN3CCN(C)CC3)cc2)cc1Nc1nccc(-c2cccnc2)n1` and report it.
0.393 µM

Reference source: ChEMBL document CHEMBL1240306
